Biological target: human vasopressin V1a receptor (Homo sapiens)
Construct: expressed in transfected cells; host or cells: CHO-K1 (cell line hV1a_5_CHO), membrane preparation
Sequence (P37288 whole entry): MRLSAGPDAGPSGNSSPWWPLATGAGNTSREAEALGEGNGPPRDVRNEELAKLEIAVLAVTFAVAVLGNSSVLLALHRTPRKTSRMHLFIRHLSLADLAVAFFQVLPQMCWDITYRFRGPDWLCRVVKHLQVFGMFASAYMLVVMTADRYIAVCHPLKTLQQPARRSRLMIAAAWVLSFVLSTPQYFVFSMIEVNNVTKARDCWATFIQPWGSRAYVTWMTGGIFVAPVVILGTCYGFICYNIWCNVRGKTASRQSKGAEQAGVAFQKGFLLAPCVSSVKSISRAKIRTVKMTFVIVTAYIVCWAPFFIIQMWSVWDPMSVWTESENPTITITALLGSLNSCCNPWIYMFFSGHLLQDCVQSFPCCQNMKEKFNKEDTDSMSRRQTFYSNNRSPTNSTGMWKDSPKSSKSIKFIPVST
Assay: Vasopressin V1a receptor binding assay
Conditions: selectivity quotient, human receptors
Procedure: 2. Vasopressin V1a Receptor Binding Assay: The test substances were dissolved in a concentration of 10^−2 M in DMSO. Further dilution of these DMSO solutions took place in incubation buffer (50 mM Tris, 10 mM MgCl2, 0.1% BSA, pH 7.4). […] The liquid scintillation measurement took place in a model 2000 or 2200CA Tricarb instrument (Packard). Conversion of the measured cpm into dpm was carried out with the aid of a standard quench series. […]
ATTRIBUTE_MEASURED: Ki(h − V1a)/Ki(h − V1b)*

// solved cases for Ki(h − V1a)/Ki(h − V1b)* follow
{"MOLECULE": "CCOc1ccccc1C1(NC(=O)N2CCN(C3CCN(C)CC3)CC2)C(=O)N(S(=O)(=O)c2ccc(OC)cc2)c2cc(F)c(C#N)cc21 (centres unmarked)", "ATTRIBUTE_MEASURED": "Ki(h − V1a)/Ki(h − V1b)*", "EXPERIMENTAL_VALUE": "++ (25-75)"}
{"MOLECULE": "CCOc1ncccc1C1(OC(=O)N2CCN(C3CCN(C)CC3)CC2)C(=O)N(S(=O)(=O)c2ccccc2)c2cc(F)c(Cl)cc21 (centres unmarked)", "ATTRIBUTE_MEASURED": "Ki(h − V1a)/Ki(h − V1b)*", "EXPERIMENTAL_VALUE": "+ (10-<25)"}
{"MOLECULE": "CCOc1ncccc1C1(NC(=O)N2CCC(N3CCN(C)CC3)CC2)C(=O)N(S(=O)(=O)c2ccc(OC)cc2)c2cc(F)c(C#N)cc21 (centres unmarked)", "ATTRIBUTE_MEASURED": "Ki(h − V1a)/Ki(h − V1b)*", "EXPERIMENTAL_VALUE": "+ (10-<25)"}
{"MOLECULE": "CCOc1ncccc1C1(NC(=O)N2CCN(C3CCN(CC)CC3)CC2)C(=O)N(S(=O)(=O)c2ccc(OC)cc2OC)c2cc(F)c(C#N)cc21 (centres unmarked)", "ATTRIBUTE_MEASURED": "Ki(h − V1a)/Ki(h − V1b)*", "EXPERIMENTAL_VALUE": "+++ (>75)"}
{"MOLECULE": "CCOc1ncccc1C1(OC(=O)N2CCN(C3CCN(C)CC3)CC2)C(=O)N(S(=O)(=O)c2ccccc2OC)c2cc(F)c(Cl)cc21 (centres unmarked)", "ATTRIBUTE_MEASURED": "Ki(h − V1a)/Ki(h − V1b)*", "EXPERIMENTAL_VALUE": "++ (25-75)"}
{"MOLECULE": "CCOc1ncccc1C1(NC(=O)N2CCN(C3CCN(C)CC3)CC2)C(=O)N(S(=O)(=O)c2ccc(OC)cc2)c2cc(F)c(C#N)cc21 (centres unmarked)", "ATTRIBUTE_MEASURED": "Ki(h − V1a)/Ki(h − V1b)*", "EXPERIMENTAL_VALUE": "+++ (>75)"}
{"MOLECULE": "CCOc1ccccc1C1(NC(=O)N2CCC(N3CCN(CC)CC3)CC2)C(=O)N(S(=O)(=O)c2ccc(OC)cc2OC)c2cc(F)c(C#N)cc21 (centres unmarked)", "ATTRIBUTE_MEASURED": "Ki(h − V1a)/Ki(h − V1b)*", "EXPERIMENTAL_VALUE": "+ (10-<25)"}
{"MOLECULE": "CCOc1ncccc1C1(NC(=O)N2CCN(C3CCN(C)CC3)CC2)C(=O)N(S(=O)(=O)c2ccc(OC)cc2OC)c2cc(F)c(C#N)cc21 (centres unmarked)", "ATTRIBUTE_MEASURED": "Ki(h − V1a)/Ki(h − V1b)*", "EXPERIMENTAL_VALUE": "+++ (>75)"}
{"MOLECULE": "CCOc1ncccc1C1(OC(=O)N2CCN(C3CCN(C)CC3)CC2)C(=O)N(S(=O)(=O)c2ccccc2OC)c2cc(Cl)c(F)cc21 (centres unmarked)", "ATTRIBUTE_MEASURED": "Ki(h − V1a)/Ki(h − V1b)*", "EXPERIMENTAL_VALUE": "+ (10-<25)"}
{"MOLECULE": "CCOc1ncccc1C1(OC(=O)N2CCN(C3CCN(C)CC3)CC2)C(=O)N(S(=O)(=O)c2ccccc2OC)c2cc(F)c(F)cc21 (centres unmarked)", "ATTRIBUTE_MEASURED": "Ki(h − V1a)/Ki(h − V1b)*", "EXPERIMENTAL_VALUE": "++ (25-75)"}

Name the reported Ki(h − V1a)/Ki(h − V1b)* value associated with the molecule CCOc1ncccc1C1(NC(=O)N2CCN(C3CCN(C)CC3)CC2)C(=O)N(S(=O)(=O)c2ccc(OC)cc2OC)c2cc(F)c(Cl)cc21 (centres unmarked)
++ (25-75)

Name the reported Ki(h − V1a)/Ki(h − V1b)* value associated with the molecule CCOc1ncccc1C1(NC(=O)N2CCN(C3CCN(CC)CC3)CC2)C(=O)N(S(=O)(=O)c2ccc(OC)cc2)c2cc(F)c(C#N)cc21 (centres unmarked)
+++ (>75)

Name the reported Ki(h − V1a)/Ki(h − V1b)* value associated with the molecule CCOc1ncccc1C1(NC(=O)N2CCN(C3CCN(CC)CC3)CC2)C(=O)N(S(=O)(=O)c2ccc(OC)cc2OC)c2cc(F)c(Cl)cc21 (centres unmarked)
++ (25-75)

Name the reported Ki(h − V1a)/Ki(h − V1b)* value associated with the molecule CCOc1ccccc1C1(NC(=O)N2CCC(N3CCN(C)CC3)CC2)C(=O)N(S(=O)(=O)c2ccc(OC)cc2)c2cc(F)c(C#N)cc21 (centres unmarked)
+ (10-<25)

Name the reported Ki(h − V1a)/Ki(h − V1b)* value associated with the molecule CCOc1ncccc1C1(NC(=O)N2CCC(N3CCN(C)CC3)CC2)C(=O)N(S(=O)(=O)c2ccc(OC)cc2OC)c2cc(F)c(Cl)cc21 (centres unmarked)
+ (10-<25)

Name the reported Ki(h − V1a)/Ki(h − V1b)* value associated with the molecule CCOc1ccccc1C1(NC(=O)N2CCN(C3CCN(CC)CC3)CC2)C(=O)N(S(=O)(=O)c2ccc(OC)cc2)c2cc(F)c(C#N)cc21 (centres unmarked)
+++ (>75)

Name the reported Ki(h − V1a)/Ki(h − V1b)* value associated with the molecule CCOc1ncccc1C1(OC(=O)N2CCN(C3CCN(C)CC3)CC2)C(=O)N(S(=O)(=O)c2ccc(OC)cc2)c2cc(F)c(Cl)cc21 (centres unmarked)
+ (10-<25)

Name the reported Ki(h − V1a)/Ki(h − V1b)* value associated with the molecule CCOc1ccccc1C1(NC(=O)N2CCC(N3CCN(CC)CC3)CC2)C(=O)N(S(=O)(=O)c2ccc(OC)cc2)c2cc(F)c(C#N)cc21 (centres unmarked)
+ (10-<25)

----------
Target: human vasopressin V1a receptor (Homo sapiens)
Construct: expressed in transfected cells; host or cells: CHO-K1 (cell line hV1a_5_CHO), membrane preparation
Assay: Vasopressin V1a receptor binding assay
Details: selectivity quotient, human receptors
ATTRIBUTE_MEASURED: Ki(h − V1a)/Ki(h − V1b)*

{"COMPOUND": "CCOc1ncccc1C1(NC(=O)N2CCC(N3CCN(C)CC3)CC2)C(=O)N(S(=O)(=O)c2ccc(OC)cc2OC)c2cc(F)c(F)cc21 (stereo not drawn)", "ATTRIBUTE_MEASURED": "Ki(h − V1a)/Ki(h − V1b)*", "EXPERIMENTAL_VALUE": "+ (10-<25)"}
{"COMPOUND": "CCOc1ncccc1C1(NC(=O)N2CCC(N3CCN(CC)CC3)CC2)C(=O)N(S(=O)(=O)c2ccc(OC)cc2)c2cc(F)c(C#N)cc21 (stereo not drawn)", "ATTRIBUTE_MEASURED": "Ki(h − V1a)/Ki(h − V1b)*", "EXPERIMENTAL_VALUE": "++ (25-75)"}
{"COMPOUND": "CCOc1ccccc1C1(NC(=O)N2CCC(N3CCN(C)CC3)CC2)C(=O)N(S(=O)(=O)c2ccc(OC)cc2OC)c2cc(F)c(C#N)cc21 (stereo not drawn)", "ATTRIBUTE_MEASURED": "Ki(h − V1a)/Ki(h − V1b)*", "EXPERIMENTAL_VALUE": "+ (10-<25)"}
{"COMPOUND": "CCOc1ncccc1C1(NC(=O)N2CCC(C3CCN(C)CC3)CC2)C(=O)N(S(=O)(=O)c2ccc(OC)cc2OC)c2cc(F)c(Cl)cc21 (stereo not drawn)", "ATTRIBUTE_MEASURED": "Ki(h − V1a)/Ki(h − V1b)*", "EXPERIMENTAL_VALUE": "+ (10-<25)"}

Query compound follows.
Name the reported Ki(h − V1a)/Ki(h − V1b)* value associated with the compound CCOc1ncccc1C1(OC(=O)N2CCN(C3CCN(C)CC3)CC2)C(=O)N(S(=O)(=O)c2ccc(OC)cc2)c2cc(F)c(F)cc21 (stereo not drawn)
++ (25-75)
